Cited source: the supplement of paper PMC10567573

B1: USP39 (parent)
chain: FVEKNPTIVNFPITNVDLREYLSE

Variants of: B1
Experiment: protein stability index of a GFP-peptide fusion (GPS, HEK-293T) (PSI 1-6); higher = more stable;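 further: lentivirally expressed fusions sorted by FACS into six bins by GFP to DsRed ratio, PSI derived from sequencing read proportions per bin multiplied by bin number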
Details: c terminus: a fixed tail appended

{"columns": ["Variant spec", "protein stability index"],
 "data": [
  ["V9G", 2.03],
  ["Y21K", 1.21],
  ["N10S", 1.76],
  ["N15C", 1.77],
  ["E24L", 2.27],
  ["I13T", 1.36],
  ["F11V", 1.82],
  ["T14L", 1.86],
  ["T14P", 1.54],
  ["V2L", 2.43],
  ["V2C", 2.94],
  ["N15V", 2.27],
  ["P6E", 2.21],
  ["S23V", 1.77],
  ["F11S", 1.77],
  ["N5C", 1.44],
  ["V9P", 1.89],
  ["I13P", 1.91],
  ["Y21H", 2.84],
  ["V2F", 2.74],
  ["V9L", 1.63],
  ["N15H", 1.44],
  ["D17V", 2.64],
  ["L22I", 1.93],
  ["T14Q", 1.81],
  ["N15Y", 2.3],
  ["F11P", 2],
  ["E20Y", 2.88],
  ["K4Y", 2.32],
  ["S23P", 2.13],
  ["I13N", 2.42],
  ["S23A", 1.57],
  ["T7S", 1.5],
  ["T7N", 2.39],
  ["P6S", 3],
  ["K4W", 1.24],
  ["S23Y", 4.51],
  ["V16A", 2.02],
  ["R19Y", 2.1],
  ["I13R", 1.98],
  ["P6N", 2.1],
  ["I8K", 2.04],
  ["E20N", 1.55],
  ["L18C", 2.64],
  ["R19E", 2.09],
  ["P12F", 3.66]
]}
